- target.under.test: Peroxisome proliferator-activated receptor alpha (Homo sapiens, UniProt Q07869)
- Sequence (Q07869 whole entry): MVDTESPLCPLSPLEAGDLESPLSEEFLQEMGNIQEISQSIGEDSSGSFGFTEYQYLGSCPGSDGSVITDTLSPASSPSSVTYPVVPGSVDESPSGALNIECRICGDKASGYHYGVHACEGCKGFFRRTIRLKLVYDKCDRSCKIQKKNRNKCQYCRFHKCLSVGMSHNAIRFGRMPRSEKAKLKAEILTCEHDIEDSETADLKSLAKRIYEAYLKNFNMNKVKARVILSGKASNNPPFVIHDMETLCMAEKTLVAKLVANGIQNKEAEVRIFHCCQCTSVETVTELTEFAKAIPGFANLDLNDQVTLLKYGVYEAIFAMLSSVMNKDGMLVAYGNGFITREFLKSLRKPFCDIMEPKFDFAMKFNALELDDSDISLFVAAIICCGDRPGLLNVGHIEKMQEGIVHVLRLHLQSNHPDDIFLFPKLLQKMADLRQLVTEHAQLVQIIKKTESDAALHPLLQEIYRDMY
- protocol.description: Agonist activity at human PPARalpha by transactivation assay
pEC50: −log10 of the molar value.
measured.parameter: pEC50

I = CCO[C@@H](Cc1ccc(OC/C=C/c2cc(OCC(F)(F)F)cc(OCC(F)(F)F)c2)cc1)C(=O)O
II = CCO[C@@H](Cc1ccc(OC/C=C/c2cc(C(F)(F)F)cc(C(F)(F)F)c2)cc1)C(=O)O
III = CCO[C@@H](Cc1ccc(OC/C=C/c2cc(-c3ccc(C(C)(C)C)cc3)cc(-c3ccc(C(C)(C)C)cc3)c2)cc1)C(=O)O
IV = CCO[C@@H](Cc1ccc(OC/C=C/c2cc(Br)cc(Br)c2)cc1)C(=O)O
# input Sort by pEC50, descending. Output spec: labels arranged per the requested ranking.
# output I, II, IV, III

====

- target.under.test: Peroxisome proliferator-activated receptor alpha (Homo sapiens, UniProt Q07869)
- protocol.description: Agonist activity at human PPARalpha by transactivation assay
pEC50: −log10 of the molar value.
measured.parameter: pEC50

P = CCO[C@@H](Cc1ccc(OC/C=C(\C)c2ccc(-c3ccccc3)cc2)cc1)C(=O)O
Q = CCOc1cc(/C=C/COc2ccc(C[C@H](OCC)C(=O)O)cc2)cc(OCC)c1
R = CCO[C@@H](Cc1ccc(OC/C=C/c2ccccc2)cc1)C(=O)O
# input Sort by pEC50, descending. Output spec: labels arranged per the requested ranking.
# output Q, P, R
(Q: 7.70, P: 6.30, R: 5.80)

====

- target.under.test: Peroxisome proliferator-activated receptor alpha (Homo sapiens)
- protocol.description: Agonist activity at human PPARalpha by transactivation assay relative to WY-14643
- Type: functional
measured.parameter: Activity (%)

Before answering, review these 2 worked examples.
chemical.smiles | Activity (%)
CCO[C@@H](Cc1ccc(OC/C=C/c2cc(OC)cc(OC)c2)cc1)C(=O)O | 186
CCO[C@@H](Cc1ccc(OC/C=C/c2cc(OCC(F)(F)F)cc(OCC(F)(F)F)c2)cc1)C(=O)O | 149

a = CCO[C@@H](Cc1ccc(OC/C=C/c2cc(/C=C/c3ccccc3)cc(/C=C/c3ccccc3)c2)cc1)C(=O)O
b = CCO[C@@H](Cc1ccc(OC/C=C/c2cc(-c3ccc(C(C)(C)C)cc3)cc(-c3ccc(C(C)(C)C)cc3)c2)cc1)C(=O)O
# input Which one would you say has the larger Activity value: a , or b ? Please indicate the selected item by its label.
# output b
(b: 110%, a: 66%)

====

- target.under.test: Peroxisome proliferator-activated receptor gamma (Homo sapiens, UniProt P37231)
- Sequence (P37231 whole entry): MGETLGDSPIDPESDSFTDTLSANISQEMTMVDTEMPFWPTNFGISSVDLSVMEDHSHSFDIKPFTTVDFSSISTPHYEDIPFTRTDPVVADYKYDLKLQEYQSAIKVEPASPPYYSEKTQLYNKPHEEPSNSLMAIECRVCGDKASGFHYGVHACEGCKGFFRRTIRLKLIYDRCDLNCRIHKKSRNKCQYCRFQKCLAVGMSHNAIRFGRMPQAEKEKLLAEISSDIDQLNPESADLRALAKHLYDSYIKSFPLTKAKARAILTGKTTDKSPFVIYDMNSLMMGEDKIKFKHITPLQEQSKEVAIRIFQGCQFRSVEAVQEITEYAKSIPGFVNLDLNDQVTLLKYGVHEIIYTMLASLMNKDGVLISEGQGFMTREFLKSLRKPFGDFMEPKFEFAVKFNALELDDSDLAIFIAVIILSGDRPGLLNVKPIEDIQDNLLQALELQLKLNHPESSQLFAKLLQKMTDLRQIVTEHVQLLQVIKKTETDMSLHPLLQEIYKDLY
measured.parameter: EC50 (µM)

chemical.smiles | EC50 (µM)
CCO[C@@H](Cc1ccc(OC/C=C/c2cc(/C=C/c3ccccc3)cc(/C=C/c3ccccc3)c2)cc1)C(=O)O | 3
CCO[C@@H](Cc1ccc(OC/C=C/c2cc(-c3ccccc3)cc(-c3ccccc3)c2)cc1)C(=O)O | 0.2
CCO[C@@H](Cc1ccc(OC/C=C/c2cc(C#Cc3ccccc3)cc(C#Cc3ccccc3)c2)cc1)C(=O)O | 3.1
